Each entry below carries its reported cell viability.
- System: HepG2
- test-name: cell viability relative to DMSO; higher = less toxic
- run-parameters: 72 h; 10 nM
Just the number in %, nothing appended.

molecule	study-target	property-label	value-unit	result
Cc1oc(-c2ccccc2)nc1CCOc1ccc(CC2SC(=O)NC2=O)c2sccc12 (stereo not drawn)	HepG2	cell viability	%	107
Cc1cccc(CN2CCN(C(c3ccccc3)c3ccc(Cl)cc3)CC2)c1 (stereo not drawn)	HepG2	cell viability	%	108
CCOC(=O)CCNc1cc(N2CCc3ccccc3CC2)nc(-c2ccccn2)n1	HepG2	cell viability	%	103

For the molecule `CN(C)C(=O)c1cc2cnc(Nc3ccc(N4CCNCC4)cn3)nc2n1C1CCCC1` , what cell viability is on record?
101

For the molecule `Oc1cccc(-c2nc(N3CCOCC3)c3oc4ncccc4c3n2)c1` , what cell viability is on record?
104

For the molecule `CC(=O)N[C@@H](Cc1ccc(O)cc1)C(=O)O` , what cell viability is on record?
88.5

These measurements were taken from the supplement of paper PMC13380429.
